Cited source: PubChem BioAssay (NCI)

# System: SK-MEL-28 melanoma
# ASSAY NOTES: NCI-60 one-dose screen, 48 h
# APPLIED CONDITIONS: 10 µM
This is part of a sample that, as a whole, favours compounds with a hit. Of some 83,000 tested, about 20% had one in any assay. Active and inactive are the calls of the source. How the source made its calls: active means growth percent below 10; inactive means the rest.
Classes used: active, inactive

INSERT INTO measurements (compound, assigned_category) VALUES
  ('COc1ccc(-c2cc(-c3ccc(Cl)cc3)nc(SCCCCCCC(=O)NO)n2)cc1OC', 'inactive'),
  ('COc1ccc2c(c1)C(=O)/C(=C/c1ccc([N+](=O)[O-])o1)O2', 'active'),
  ('CCc1c2c(nc3ccc(OC(=O)N4CCC(N5CCCCC5)CC4)cc13)-c1cc3c(c(=O)n1C2)COC(=O)[C@]3(O)CC', 'inactive'),
  ('C=CCn1c(SCC(=O)Nc2ccc(C(=O)/C=C/c3ccc(Cl)cc3)cc2)nnc1-c1cc(-c2ccccc2)nc2ccccc12', 'inactive'),
  ('CCC(c1ccc(OC)cc1)C(CC)c1ccc(O)c(CN2CCN(C)CC2)c1 (stereo not given)', 'active'),
  ('O=C(Nc1ccc(NS(=O)(=O)c2ccc(F)cc2)cc1)C12CC3CC(CC(C3)C1)C2', 'inactive'),
  ('C/C(=N\O)c1ccc(NC(=O)CSc2nnc(-c3ccccc3)n2-c2ccccc2)cc1', 'inactive'),
  ('O=C(Nc1ccc(F)cc1)c1cc2ccccc2cc1O', 'inactive'),
  ('COc1cc(-c2nn(-c3ccc(NC(=O)NCCCNC(=O)c4ccccc4)cc3)cc2-c2ccncc2)ccc1Cl', 'inactive'),
  ('Cc1c2c(nn1C(=O)c1nn(-c3ccc(Cl)cc3)cc1O)-c1ccccc1CC2', 'inactive'),
  ('CCN(CC)CC(=O)N(CC)c1ccc(C)c(Cl)c1', 'inactive'),
  ('COc1cc(-c2csc(NC(=O)Nc3cc(C(F)(F)F)cc(C(F)(F)F)c3)n2)cc(OC)c1OC', 'inactive'),
  ('COc1cc(/C=C2\CCCC3C2=Nc2ccccc2NC3c2cc(OC)c(OC)c(OC)c2)cc(OC)c1OC (stereo not given)', 'inactive'),
  ('COc1ccc2cc(-c3nc4ccccc4s3)c(Cl)nc2c1OC', 'inactive'),
  ('C[C@@H](O)[C@H]1C(=O)N2C(C(=O)O)=C(SC3CN[C@H](C(=O)N(C)C)C3)[C@H](C)[C@H]12 (stereo not given in full)', 'inactive'),
  ('CC(C)(C)c1ccc(S(=O)(=O)Oc2ccc(NC(=O)C3CCCCC3)cc2)cc1', 'inactive'),
  ('Cc1ccc(N=Nc2ccccc2)cc1', 'inactive'),
  ('COc1cc(-c2nn(-c3cccc(NC(=O)NCCNC(=O)c4cccc(C(F)(F)F)c4)c3)cc2-c2ccncc2)ccc1Cl', 'inactive'),
  ('CCCCC1(O)CCCCC1', 'inactive'),
  ('O=S(=O)(O)c1cccc(Nc2ccc3ccccc3c2)c1', 'inactive');

====

# Tested on: K-562 leukemia
# ASSAY NOTES: NCI-60 one-dose screen, 48 h
# APPLIED CONDITIONS: 10 µM
# Description: Cells are grown in 96 well plates and exposed to the test compound for 48 hours. Compounds are tested at a single concentration, which is 10^-5 M for most compounds. The reported endpoint is percent growth (GI% or GIPRCNT), where numbers from 0 - 100% represent growth inhibition, and numbers from -100% - 0 represent cell death. For example, a value of 40 represents 60% growth inhibition. A value of 0 means no net growth occurred over the course of the experiment. […]
The panel holds about 83,000 compounds, 20% with a hit somewhere; the sample as a whole holds those more often. Calls of active or inactive are those of the source. Rule for the calls: active = growth percent below 10; inactive = the rest.
Classes used: active, inactive

INSERT INTO assay_data (smi, study_target, assigned_category) VALUES
  ('COc1ccc(-c2nn(-c3cccc(Cl)c3)cc2-c2cc(-c3cccs3)[nH]c(=S)n2)cc1', 'K-562 leukemia', 'inactive'),
  ('COc1ccc(C(=O)c2cc3c(OC)c(OC)c(OC)cc3[nH]2)cc1', 'K-562 leukemia', 'active'),
  ('COc1cc(/C=C/c2cc(/C=C/c3ccc(O)c(OC)c3)n(C(=O)Nc3ccccc3Cl)n2)ccc1O', 'K-562 leukemia', 'active'),
  ('Cc1c[nH]c(=O)n(Cc2nnc(CCC(=O)c3nc4ccccc4[nH]3)o2)c1=O', 'K-562 leukemia', 'inactive'),
  ('Cc1c2c(nn1C(=O)c1nn(-c3ccc(Cl)cc3)cc1O)-c1ccccc1CC2', 'K-562 leukemia', 'active');

====

Some molecules, each annotated with its measured growth.
# System: SNB-19 CNS
# ASSAY NOTES: NCI-60 one-dose screen, 48 h (100 = growth as untreated, 0 = no growth, -100 = all killed)
# APPLIED CONDITIONS: 10 µM
The panel holds about 83,000 compounds, 20% with a hit somewhere; the sample as a whole holds those more often.
PROPERTY MEASURED: growth (%)

INSERT INTO results (molecule, numeric_readout) VALUES
  ('CCOC(=O)c1sc2ncnc(Nc3ccc4c(cnn4C(=O)Nc4ccc(C)c(Cl)c4)c3)c2c1C', 103),
  ('COc1ccc(/C=C/c2nnc(/C=C/c3ccc(OC)c(OC)c3)o2)cc1OC', 14.8),
  ('NC(N)=N/N=C(\c1ccccc1)C(O)c1ccccc1 (configuration not stated)', 95.3),
  ('COc1cccc(N=Nc2cccc(OC)c2)c1', 97),
  ('Cc1ccc(-n2c(C)nn3c(=O)c4c5c(sc4nc23)CN(C)CC5)cc1', 105),
  ('COc1ccc(CCN2CCC(Nc3nc4ccccc4n3Cc3ccc(F)cc3)CC2)cc1', 40.6),
  ('COc1cc(/C=C2\CCCC3=C2N=C2SC(C)=CN2C3c2cc(OC)c(OC)c(OC)c2)cc(OC)c1OC (configuration not stated)', 52.7),
  ('Brc1ccc2c(c1)-c1ccccc1C1=NCCN12', 16.2),
  ('CCN(CC)CC(=O)N(CC)c1ccc(C)c(Cl)c1', 104),
  ('C/C(=C/CCC(C)[C@@H]1CC[C@]2(C)C3=C(CC[C@@]12C)[C@@]1(C)CCC(=O)C(C)(C)[C@@H]1CC3)C(=O)O (some centres not stated)', -78.1),
  ('O=C1c2ccccc2C(=O)N1CCCCNc1ccccc1', 96.8),
  ('O=C(Nc1ccc2c(O)cc(S(=O)(=O)O)cc2c1)c1ccc([N+](=O)[O-])cc1', 95.8),
  ('Cc1ccc(NC(=O)N2CCCCC2)cc1[N+](=O)[O-]', 98.4),
  ('COc1nc2c(c(=O)n1C)CN(c1ccccc1)C(=O)C(C)N2 (configuration not stated)', 96.7),
  ('COC(=O)C1(O)NC(=C(C#N)C#N)C(C#N)=C1C(=O)c1ccc(OC)c(OC)c1 (configuration not stated)', 97.1),
  ('Cc1ccc(Cl)cc1NC(=O)CCl', 82.2),
  ('O=C(CCn1cnc2c(cc(-c3ccccc3)n2-c2ccccc2)c1=O)Nc1ccc(F)cc1', 72.9),
  ('Cc1noc(C)c1CSc1ccccc1C(=O)N1CCN(c2cccc(C(F)(F)F)c2)CC1', 81.5),
  ('CCN(CC)CCOc1ccc2c(c1O)C(=O)c1ccccc1C2=O', 82.6),
  ('CCn1cc(CNc2ccc(C(=O)Nc3ccc4ccccc4c3)cc2)c(C)n1', 77.6),
  ('COc1ccc2c(c1)CC=C1[C@@H]2CC[C@]2(C)C(=O)/C(=N/O)C[C@@H]12', 93.4),
  ('O=C(CNc1nnc(-c2cccnc2SCc2ccccc2)s1)Nc1nc(Cl)cc(Cl)n1', 103),
  ('C/C=C/CSC(C)(C)C(=O)NC', 101),
  ('Nc1ccc(CC[C@H]2CCC/C=C/[C@@H]3C[C@H](O)C[C@H]3[C@H](O)/C=C/C(=O)O2)cc1', 29.5),
  ('COc1cc2cc(Oc3ccc(NC(=O)c4ccc(Cl)c(C(F)(F)F)c4)cc3)c(C)nc2cc1OC', 39.3),
  ('OC[C@H]1OC([S-])[C@H](O)[C@@H](O)[C@@H]1O.[Au+] (some centres not stated)', 101),
  ('CC(=O)C1N=NCC1c1ccccc1 (configuration not stated)', 99.9),
  ('Nc1cc(Br)c(-c2nn3c(CCC(=O)c4nc5ccccc5[nH]4)nnc3s2)c(Br)c1', 104),
  ('NS(=O)(=O)c1ccc(N2N=C(c3ccccc3)CCC2=O)cc1', 94.7),
  ('O=[N+]([O-])c1ccc(/C(=C/c2ccccc2)[n+]2ccccc2)cc1', 103),
  ('Nc1ccc(-c2cccs2)cc1NC(=O)c1ccc(CCCC(=O)Nc2ccc(C3CC3N)cc2)cc1 (configuration not stated)', 90.8),
  ('COc1ccc2nc(Cl)c(Cn3nnc(Cc4ccccc4)n3)cc2c1', 58),
  ('C[C@]12CCC3c4ccc(O)cc4C[C@@H](CCCCCCCCCS(=O)CCCC(F)(F)C(F)(F)F)C3C1CC[C@@H]2O (some centres not stated)', 89.8),
  ('NC(N)=N/N=C(\N=Nc1ccccc1)c1ccc(Cl)cc1', 81.9),
  ('COc1cccc(-c2nc3sccn3c2-c2cccc(S(C)(=O)=O)c2)c1', 99.2),
  ('O=C(/C=C/c1cccc(B(O)O)c1)c1cccc(B(O)O)c1', 43.9),
  ('c1cnc2[nH]cc(-c3nc(-c4ccsc4)cs3)c2c1', 102),
  ('CC(C)(C)c1ccc(S(=O)(=O)N[C@H]2CC[C@H]3[C@@H]4CCc5cc(O)ccc5[C@H]4CC[C@]23C)cc1', 80.6),
  ('CCNCC(=O)Nc1ccc(C(=O)OCC)cc1', 109),
  ('COc1cc(-c2csc(NC(=O)Nc3ccc(Cl)c(C(F)(F)F)c3)n2)cc(OC)c1OC', 13.2),
  ('C#CC(C)(O)[C@@H]1C[C@H](CC(=O)O)C1(C)C (some centres not stated)', 98.6),
  ('COc1ccc(Cl)cc1Nc1nc(C(F)(F)F)ccc1C(=O)N/N=C/c1cc(OC)c(OC)c(OC)c1', 38.9);
